# Test system: P. aeruginosa ATCC 35151
# assay-info: microbe, parasite or virus in culture
# Format: cell-based
# experimental-setup: Pseudomonas aeruginosa, ATCC35151, read-out: MIC P. aeruginosa ATCC 35151
experimental-readout: MIC

- O=C(NC(C(=O)N[C@H]1Cc2cccc(C(=O)O)c2OB1O)c1ccc(P(=O)(O)O)cc1)c1ccccn1 (stereo partly shown): 2 to 4 µg/mL
- CCN1CCN(C(=O)NC(C(=O)N[C@H]2Cc3cccc(C(=O)O)c3OB2O)c2ccc(CP(=O)(O)O)cc2)C(=O)C1=O (stereo partly shown): < 1 µg/mL
- O=C(O)c1cccc2c1OB(O)[C@@H](NC(=O)C(NS(=O)(=O)C1CC1)c1ccc(P(=O)(O)O)cc1)C2 (stereo partly shown): 32 to 64 µg/mL
- O=C(O)c1cccc2c1OB(O)[C@@H](NC(=O)[C@H](NC(=O)c1cnc3sccn3c1=O)c1ccc(P(=O)(O)O)cc1)C2 (single isomer, unassigned): < 1 µg/mL
- O=C(O)c1cccc2c1OB(O)[C@@H](NC(=O)[C@@H](NC(=O)c1cnc3n(c1=O)CCS3)c1ccc(P(=O)(O)O)cc1)C2 (single isomer, unassigned): 8 to 16 µg/mL
- O=C(O)c1cccc2c1OB(O)[C@@H](NC(=O)C(NC(=O)c1ccc[nH]c1=O)c1ccc(P(=O)(O)O)cc1)C2 (stereo partly shown): 2 to 4 µg/mL
- CCN1CCN(C(=O)NC(C(=O)N[C@H]2Cc3cccc(C(=O)O)c3OB2O)c2cc(P(=O)(O)O)ccc2F)C(=O)C1=O (stereo partly shown): < 1 µg/mL
- CS(=O)(=O)N1CCN(C(=O)N[C@@H](C(=O)N[C@H]2Cc3ccc(F)c(C(=O)O)c3OB2O)c2ccc(P(=O)(O)O)c(F)c2)C1=O (single isomer, unassigned): 2 to 4 µg/mL
- CCC(=O)NC(C(=O)N[C@H]1Cc2cccc(C(=O)O)c2OB1O)c1ccc(P(=O)(O)O)cc1 (stereo partly shown): 8 to 16 µg/mL
- CS(=O)(=O)N1CCN(C(=O)NC(C(=O)N[C@H]2Cc3cccc(C(=O)O)c3OB2O)c2ccc(P(=O)(O)O)c(F)c2)C1=O (stereo partly shown): 8 to 16 µg/mL
- CN1CCC[C@@H]1C(=O)N[C@@H](C(=O)N[C@H]1Cc2cccc(C(=O)O)c2OB1O)c1ccc(P(=O)(O)O)cc1 (racemic): 32 to 64 µg/mL
- NS(=O)(=O)NC(C(=O)N[C@H]1Cc2cccc(C(=O)O)c2OB1O)c1ccc(P(=O)(O)O)cc1 (stereo partly shown): > 128 µg/mL
- O=C(O)c1cccc2c1OB(O)[C@@H](NC(=O)[C@@H](NC(=O)c1cnc3sccn3c1=O)c1ccc(P(=O)(O)O)cc1)C2 (single isomer, unassigned): 2 to 4 µg/mL

Each recorded value in this set is attributed to patent US20240270762A1.
